IC50 listing for selected molecules.
EXPERIMENTAL_SYSTEM: UniProt:P24822
Sequence (P24822 whole entry): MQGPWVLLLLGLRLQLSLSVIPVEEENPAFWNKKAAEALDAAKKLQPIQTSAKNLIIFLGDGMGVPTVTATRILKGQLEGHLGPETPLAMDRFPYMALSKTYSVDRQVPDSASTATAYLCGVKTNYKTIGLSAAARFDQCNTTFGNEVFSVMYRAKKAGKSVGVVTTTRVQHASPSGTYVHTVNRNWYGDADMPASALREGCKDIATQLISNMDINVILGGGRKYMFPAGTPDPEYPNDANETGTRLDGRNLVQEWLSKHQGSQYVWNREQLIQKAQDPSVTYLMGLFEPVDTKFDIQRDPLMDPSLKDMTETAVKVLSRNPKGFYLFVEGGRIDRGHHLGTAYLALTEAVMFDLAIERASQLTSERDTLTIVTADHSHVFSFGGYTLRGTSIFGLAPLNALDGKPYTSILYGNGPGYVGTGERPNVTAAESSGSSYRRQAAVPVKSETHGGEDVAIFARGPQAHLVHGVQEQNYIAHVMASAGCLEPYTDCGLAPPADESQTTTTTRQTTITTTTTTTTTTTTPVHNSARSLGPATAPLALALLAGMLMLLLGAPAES
ASSAY_PROCEDURE: PubChem AID 488785
Format: functional
Calls of active or inactive are those of the source. The rule behind the calls is not given here.

• Cc1ccc(C)c(S(=O)(=O)Nc2ccc(O)c(Sc3nnc[nH]3)c2)c1 = 2.75 µM (active)

q: For the molecule shown here, O=C(CCCN1C(=O)/C(=C\c2ccco2)SC1=S)Nc1ccc(O)cc1C(=O)O , give the reported IC50.
a: 6.43 µM (active)

q: Now give it for CCCCCOc1ccc(C(=O)CCC(=O)NNC(=O)c2ccncc2)cc1 too.
a: 14.7 µM (active)

q: Lookup NS(=O)(=O)c1cc(C(=O)N=Nc2c(O)[nH]c3ccccc23)ccc1Cl
a: 42.4 µM (active)
